Give measured cell viability for each item. Keep answers brief.
# Tested on: SEM cells
# protocol notes: cell viability relative to DMSO control; higher = less cytotoxic
# particulars: RPMI 5 mM glucose + 10% dialyzed FBS; 48 h; 15.4 µM
Answers are plain numbers, in %.

O=C(O)/C=C/c1ccc(O)c(O)c1 : 50
C[C@]12CC[C@H]3[C@@H](C\C=C/4C[C@@H](O)CC[C@]34C)[C@@H]1CCC2=O : 115
Cn1cc(/C=C2\C(=O)Nc3cccnc32)c2ccccc21 : 30.2

For the 2 compounds below, give their cell viability values.
1. Nc1nc(N)c2nc(-c3cccc(O)c3)c(-c3cccc(O)c3)nc2n1
2. CN1CCCC(CC1)N2\N=C(CC3=CC=C(Cl)C=C3)/C4=C(C=CC=C4)C2=O (stereo not given)

Outgoing:
1: 61; 2: 109
